Values were extracted from the supplement of paper PMC10307832.

# Test system: PC-14
# procedure_summary: relative viability (nuclei count vs DMSO), 5 days (fraction); higher = more cells survive
# condition: first compound 0.253 µM
Returns: string. Value is Yes if measured relative viability is below 0.8, and No if it is greater than or equal to it.

Worked cases, answers included:
# compound, class
measured = [
    ("Oc1nc(-c2ccc(C(F)(F)F)cc2)nc2c1CSCC2 [XAV939] + CCNC(=O)c1noc(-c2cc(C(C)C)c(O)cc2O)c1-c1ccc(CN2CCOCC2)cc1 [Luminespib] (partner 0.01 µM)", "Yes"),
    ("Oc1nc(-c2ccc(C(F)(F)F)cc2)nc2c1CSCC2 [XAV939] + CS(=O)(=O)N1CCN(Cc2cc3nc(-c4cccc5[nH]ncc45)nc(N4CCOCC4)c3s2)CC1 [Pictilisib] (partner 1 µM)", "Yes"),
    ("Oc1nc(-c2ccc(C(F)(F)F)cc2)nc2c1CSCC2 [XAV939] + CC1(C)CCC(c2ccc(Cl)cc2)=C(CN2CCN(c3ccc(C(=O)NS(=O)(=O)c4ccc(N[C@H](CCN5CCOCC5)CSc5ccccc5)c(S(=O)(=O)C(F)(F)F)c4)cc3)CC2)C1 [Navitoclax] (partner 0.5 µM)", "No"),
    ("C=C1C(=O)O[C@@H](CCCCCCCC)[C@@H]1C(=O)O [C-75] + Cc1nc(Nc2ncc(C(=O)Nc3c(C)cccc3Cl)s2)cc(N2CCN(CCO)CC2)n1 [Dasatinib] (partner 0.075 µM)", "Yes"),
    ("C=C1C(=O)O[C@@H](CCCCCCCC)[C@@H]1C(=O)O [C-75] + CCNC(=O)c1noc(-c2cc(C(C)C)c(O)cc2O)c1-c1ccc(CN2CCOCC2)cc1 [Luminespib] (partner 0.01 µM)", "Yes"),
    ("C=C1C(=O)O[C@@H](CCCCCCCC)[C@@H]1C(=O)O [C-75] + CC(=O)c1c(C)c2cnc(Nc3ccc(N4CCNCC4)cn3)nc2n(C2CCCC2)c1=O [Palbociclib] (partner 0.5 µM)", "Yes"),
    ("Oc1nc(-c2ccc(C(F)(F)F)cc2)nc2c1CSCC2 [XAV939] + Cc1nc(NC(=O)N2CCC[C@H]2C(N)=O)sc1-c1ccnc(C(C)(C)C(F)(F)F)c1 [Alpelisib] (partner 2 µM)", "No"),
    ("C=C1C(=O)O[C@@H](CCCCCCCC)[C@@H]1C(=O)O [C-75] + C[C@@H](Oc1cc(-c2cnn(C3CCNCC3)c2)cnc1N)c1c(Cl)ccc(F)c1Cl [Crizotinib] (partner 1 µM)", "No"),
]

Q: Please indicate whether the reported relative viability of Oc1nc(-c2ccc(C(F)(F)F)cc2)nc2c1CSCC2 [XAV939] + Cc1cc(Nc2cc(N3CCN(C)CC3)nc(Sc3ccc(NC(=O)C4CC4)cc3)n2)n[nH]1 [Tozasertib] (partner 0.1 µM) is strictly below 0.8.
Ans: Yes
